# assay-target: T1, recombinant human TNF (human, UniProt P01375 77-233)
# T1 construct: also called TNF-alpha; TNFα
# T1 sequence (P01375 77-233 limits assumed): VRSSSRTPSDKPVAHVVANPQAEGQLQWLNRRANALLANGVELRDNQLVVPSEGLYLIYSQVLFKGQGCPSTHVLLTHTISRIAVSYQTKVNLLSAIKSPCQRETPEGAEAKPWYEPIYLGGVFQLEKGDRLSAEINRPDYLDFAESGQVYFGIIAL
# measurement-description: Standard TNFR2/TNF interference ELISA: ICVD mixed with human TNF, TNF captured on coated Enbrel (competition)
Reported EC50 values follow for various binders

>  <binder>
anti-TNF-alpha ICVD ID8F-EV (VHH, also called Q65B1 with a K59H substitution; K59H; not shown: C-terminal Flag-His6 tag) VHH: EVQLVESGGGLVQPGGSLKLSCAASGFDFSSHWMYWVRQAPGKELEWLSEINTNGLITHYGDSVKGRFTVSRNNAANKMYLELTRLEPEDTALYYCARNQKGLNKGQGTQVTVSS

>  <EC50 / nM>
0.139

$$$$
>  <binder>
anti-TNF-alpha ICVD ID43F (VHH, also called Q65B1 with a K59A substitution; K59A; not shown: C-terminal Flag-His6 tag) VHH: EVQLVESGGGLVQPGGSLKLSCAASGFDFSSHWMYWVRQAPGKELEWLSEINTNGLITAYGDSVKGRFTVSRNNAANKMYLELTRLEPEDTALYYCARNQKGLNKGQGTQVTVSS

>  <EC50 / nM>
0.603

$$$$
>  <binder>
anti-TNF-alpha ICVD ID44F (VHH, also called Q65B1 with a K59Q substitution; K59Q; not shown: C-terminal Flag-His6 tag) VHH: EVQLVESGGGLVQPGGSLKLSCAASGFDFSSHWMYWVRQAPGKELEWLSEINTNGLITQYGDSVKGRFTVSRNNAANKMYLELTRLEPEDTALYYCARNQKGLNKGQGTQVTVSS

>  <EC50 / nM>
0.245

$$$$
>  <binder>
anti-TNF-alpha ICVD Q65B1 (VHH, also called K59; not shown: C-terminal Flag-His6 tag) VHH: EVQLVESGGGLVQPGGSLKLSCAASGFDFSSHWMYWVRQAPGKELEWLSEINTNGLITKYGDSVKGRFTVSRNNAANKMYLELTRLEPEDTALYYCARNQKGLNKGQGTQVTVSS

>  <EC50 / nM>
0.0984

$$$$
